Entry source: paper PMC4303583

measured.target: E. coli ATP synthase (purified F1 or membrane bound F1Fo) (Escherichia coli, UniProt P0ABA6+P0ABB0+P0ABB4)
Sequence (P0ABA4 whole entry): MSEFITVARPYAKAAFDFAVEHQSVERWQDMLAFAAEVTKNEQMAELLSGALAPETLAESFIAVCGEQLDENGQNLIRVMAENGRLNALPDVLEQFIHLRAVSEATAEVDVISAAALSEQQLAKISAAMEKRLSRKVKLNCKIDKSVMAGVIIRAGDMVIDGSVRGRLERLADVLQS
Sequence (P0ABB4 2-460): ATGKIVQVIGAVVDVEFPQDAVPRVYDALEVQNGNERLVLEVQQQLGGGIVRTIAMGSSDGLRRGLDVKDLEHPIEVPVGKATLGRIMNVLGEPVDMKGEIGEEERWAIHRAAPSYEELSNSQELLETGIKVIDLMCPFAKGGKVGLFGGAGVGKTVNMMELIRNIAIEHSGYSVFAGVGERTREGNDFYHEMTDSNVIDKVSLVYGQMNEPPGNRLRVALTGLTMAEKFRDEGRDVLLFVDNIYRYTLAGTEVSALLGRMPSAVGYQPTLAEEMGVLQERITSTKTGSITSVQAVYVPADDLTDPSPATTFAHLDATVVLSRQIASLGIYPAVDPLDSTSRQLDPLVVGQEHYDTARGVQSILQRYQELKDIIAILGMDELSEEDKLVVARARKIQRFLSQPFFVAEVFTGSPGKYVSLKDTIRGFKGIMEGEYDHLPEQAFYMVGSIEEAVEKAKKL
Sequence (P0ABA6 whole entry): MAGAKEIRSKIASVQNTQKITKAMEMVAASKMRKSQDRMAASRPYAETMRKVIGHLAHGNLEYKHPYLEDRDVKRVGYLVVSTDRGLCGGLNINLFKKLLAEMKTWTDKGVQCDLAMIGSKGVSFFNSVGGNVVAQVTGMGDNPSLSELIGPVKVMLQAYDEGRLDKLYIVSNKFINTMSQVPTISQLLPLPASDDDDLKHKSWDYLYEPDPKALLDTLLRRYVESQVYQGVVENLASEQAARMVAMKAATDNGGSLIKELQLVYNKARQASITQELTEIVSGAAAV
Sequence (P0A6E6 2-139, further chain): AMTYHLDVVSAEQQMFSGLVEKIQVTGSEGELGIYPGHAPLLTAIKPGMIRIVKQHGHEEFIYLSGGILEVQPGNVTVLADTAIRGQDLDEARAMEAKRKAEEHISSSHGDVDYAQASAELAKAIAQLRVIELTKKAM
Sequence (P0ABB0 whole entry): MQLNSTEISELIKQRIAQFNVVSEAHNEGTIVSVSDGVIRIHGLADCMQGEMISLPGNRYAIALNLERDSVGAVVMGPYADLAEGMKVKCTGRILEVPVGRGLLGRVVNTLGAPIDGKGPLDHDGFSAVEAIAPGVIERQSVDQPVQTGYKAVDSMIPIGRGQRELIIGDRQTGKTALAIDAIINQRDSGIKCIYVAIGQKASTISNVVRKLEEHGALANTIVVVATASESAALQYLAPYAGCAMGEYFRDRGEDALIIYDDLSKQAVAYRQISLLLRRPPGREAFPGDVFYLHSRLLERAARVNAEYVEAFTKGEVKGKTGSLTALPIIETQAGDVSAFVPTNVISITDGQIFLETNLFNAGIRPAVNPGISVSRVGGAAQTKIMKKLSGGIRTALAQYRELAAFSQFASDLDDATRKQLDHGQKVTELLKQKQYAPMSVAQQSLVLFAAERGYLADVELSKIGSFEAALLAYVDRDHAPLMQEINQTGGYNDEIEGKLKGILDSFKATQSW
test: biochemical
Type: biochemical
condition.parameters: purified F1 or membranes, preincubated 60 min at 23°C, varied concentrations
Assignment: determine reported maximum amount of inhibition of ATPase activity for the given compounds.

Look at this compound and give its reported maximum amount of inhibition of ATPase activity. Oc1cccc(O)c1 [PC03, Resorcinol]
~ 20%

Try the compound O=[N+]([O-])c1ccc(OP(=O)(O)Oc2ccc([N+](=O)[O-])cc2)cc1 [PC15, Bis(4-nitrophenyl)phosphate]
~ 40%

Another: O=C1c2cccc(O)c2C(=O)c2c(O)cccc21 [PC16, 1,8-Dihydroxy-9,10-anthraquinone]
~ 22%

// same read-out, input: O=[N+]([O-])c1ccc(OP(=O)(Oc2ccc([N+](=O)[O-])cc2)Oc2ccc([N+](=O)[O-])cc2)cc1 [PC14, Tris(4-nitrophenyl)phosphate]
~ 45%

Let us now turn to Oc1ccccc1O [PC04, Catechol]
~ 40%

And what about the compound Cc1cc(O)c(C(C)C)cc1O [PC01, Dihydrothymoquinone] ?
~ 40%

----------
Would you kindly list IC50 for each of these compounds?
measured.target: E. coli ATP synthase (purified F1 or membrane bound F1Fo) (Escherichia coli, UniProt P0ABA6+P0ABB0+P0ABB4)
test: biochemical

Can you look up the measured IC50 of Oc1cccc(C=Nc2cccc(O)c2)c1 [PC10, 3-[[(3-Hydroxyphenyl)imino]methyl]phenol] for me?
~2.25 µM

Moving on to Oc1ccc(C=Nc2cccc(O)c2)cc1 [PC08, 4-[[(3-Hydroxyphenyl)imino]methyl]phenol]
~9 µM

Try this compound too: Oc1ccc(O)cc1 [PC02, Hydroquinone]
~20 µM

And for Oc1cccc(N=Cc2ccccc2O)c1 [PC06, 2-[[(3-Hydroxyphenyl)imino]methyl]phenol] ?
~5.25 µM

----------
measured.target: E. coli ATP synthase (purified F1 or membrane bound F1Fo) (Escherichia coli, UniProt P0ABA6+P0ABB0+P0ABB4)
test: biochemical
Type: biochemical
condition.parameters: left over ATPase activity at maximal inhibition, purified F1 or membranes
Hi there, I'd appreciate the recorded residual activity for every entry that follows.

So what does the record say about residual activity for Oc1ccc(C=Nc2ccc(O)cc2)cc1 [PC11, 4-[[(4-Hydroxyphenyl)imino]methyl]phenol] ?
~ 80%

Now try O=C1c2cccc(O)c2C(=O)c2c(O)cccc21 [PC16, 1,8-Dihydroxy-9,10-anthraquinone] .
~ 78%

Same question for Oc1cccc(O)c1 please.
~ 80%

Now give it for Oc1ccccc1O too.
~ 60%

// same read-out, input: Cc1cc(O)c(C(C)C)cc1O [PC01, Dihydrothymoquinone]
~ 60%

What do you get for O=[N+]([O-])c1ccc(OP(=O)(Oc2ccc([N+](=O)[O-])cc2)Oc2ccc([N+](=O)[O-])cc2)cc1 [PC14, Tris(4-nitrophenyl)phosphate] ?
~ 55%
